Biological target: ATP-dependent translocase ABCB1 (Homo sapiens, UniProt P08183)
Sequence (P08183 whole entry): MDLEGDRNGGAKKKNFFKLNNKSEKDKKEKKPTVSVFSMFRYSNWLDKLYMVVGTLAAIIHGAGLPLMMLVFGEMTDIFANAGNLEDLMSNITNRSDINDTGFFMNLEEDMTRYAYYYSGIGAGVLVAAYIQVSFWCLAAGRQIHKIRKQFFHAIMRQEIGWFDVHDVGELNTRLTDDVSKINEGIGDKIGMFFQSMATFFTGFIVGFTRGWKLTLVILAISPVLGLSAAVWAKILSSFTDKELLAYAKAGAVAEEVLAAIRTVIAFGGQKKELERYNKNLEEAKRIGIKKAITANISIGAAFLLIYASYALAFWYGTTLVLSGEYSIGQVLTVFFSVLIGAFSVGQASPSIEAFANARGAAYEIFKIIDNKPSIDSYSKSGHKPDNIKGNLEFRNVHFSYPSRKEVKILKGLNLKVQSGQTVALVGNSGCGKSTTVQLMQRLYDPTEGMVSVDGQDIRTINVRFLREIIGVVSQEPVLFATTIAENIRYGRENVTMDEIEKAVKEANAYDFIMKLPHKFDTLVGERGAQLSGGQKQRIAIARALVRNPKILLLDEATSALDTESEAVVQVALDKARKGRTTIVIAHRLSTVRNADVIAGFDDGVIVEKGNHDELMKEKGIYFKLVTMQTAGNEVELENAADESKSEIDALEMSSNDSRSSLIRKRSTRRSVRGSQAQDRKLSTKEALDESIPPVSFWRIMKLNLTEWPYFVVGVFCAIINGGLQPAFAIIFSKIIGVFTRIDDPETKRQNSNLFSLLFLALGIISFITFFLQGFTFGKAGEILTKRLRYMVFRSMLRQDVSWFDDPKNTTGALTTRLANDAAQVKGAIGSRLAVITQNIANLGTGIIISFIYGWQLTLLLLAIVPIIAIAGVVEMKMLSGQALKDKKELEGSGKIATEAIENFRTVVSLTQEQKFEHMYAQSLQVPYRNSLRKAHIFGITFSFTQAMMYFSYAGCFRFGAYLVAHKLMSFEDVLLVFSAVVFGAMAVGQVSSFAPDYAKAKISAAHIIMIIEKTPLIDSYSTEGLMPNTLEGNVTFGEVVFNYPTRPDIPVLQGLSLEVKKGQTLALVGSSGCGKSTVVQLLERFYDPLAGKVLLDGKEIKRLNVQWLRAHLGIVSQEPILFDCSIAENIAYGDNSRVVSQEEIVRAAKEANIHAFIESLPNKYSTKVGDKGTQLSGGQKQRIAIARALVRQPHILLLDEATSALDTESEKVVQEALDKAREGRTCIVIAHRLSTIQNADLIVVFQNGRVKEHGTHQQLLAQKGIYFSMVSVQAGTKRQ
Experiment: Inhibition of human P-glycoprotein transfected in pig LLC-GA5-COL150 cells assessed as quinidine transport from apical to basolateral side preincubated for 30 mins followed by quinidine addition to apical side measured after 60 mins
Assay type: cell-based
Set-up: scale not given here
Settings: human, llc-ga5-col150, 1 h
readout-label: log(activity)

Examples with their reported log(activity) follow.
molecule	assayed-target	recorded-number
CC(C)(C)N(NC(=O)c1ccccc1Br)C(=O)c1ccccc1Cl	ATP-dependent translocase ABCB1 (Homo sapiens, UniProt P08183)	-0.95
CCCc1ccc(C(=O)NN(C(=O)c2ccccc2Cl)C(C)(C)C)cc1	ATP-dependent translocase ABCB1 (Homo sapiens, UniProt P08183)	-0.02
CCc1ccc(C(=O)NN(C(=O)c2cc(C)cc(C)c2)C(C)(C)C)cc1 [TEBUFENOZIDE]	ATP-dependent translocase ABCB1 (Homo sapiens, UniProt P08183)	0.06

(1) Cc1cc(C)cc(C(=O)NN(C(=O)c2ccccc2Cl)C(C)(C)C)c1
(2) CC(=O)c1ccc(C(=O)NN(C(=O)c2ccccc2Cl)C(C)(C)C)cc1
(3) Cc1cc(C)cc(C(=O)N(NC(=O)c2ccc(C(C)C)cc2)C(C)(C)C)c1
(4) CC(C)(C)N(NC(=O)c1cccc(I)c1)C(=O)c1ccccc1Cl
(5) Cc1ccc(C(=O)NN(C(=O)c2cc(C)cc(C)c2)C(C)(C)C)cc1
IN: Please produce an ascending ranking of these molecules based on log(activity). Enter labels, ranked according to the request.
OUT: 2, 1, 5, 3, 4
(2: -1.25, 1: -0.54, 5: -0.35, 3: -0.02, 4: 0.25)

(A) CSc1ccccc1C(=O)NN(C(=O)c1ccccc1Cl)C(C)(C)C
(B) CCCc1ccc(C(=O)NN(C(=O)c2cc(C)cc(C)c2)C(C)(C)C)cc1
(C) Cc1ccc(C)c(C(=O)NN(C(=O)c2ccccc2Cl)C(C)(C)C)c1
(D) CC(C)(C)N(NC(=O)c1ccc(C(F)(F)F)cc1)C(=O)c1ccccc1Cl
(E) CCOc1cccc(C(=O)NN(C(=O)c2cc(C)cc(C)c2)C(C)(C)C)c1
IN: List the 5 entries from lowest log(activity) to highest log(activity) value. Form entry: labels listed in requested order.
OUT: A, D, C, E, B

(1) CC(C)(C)N(NC(=O)c1ccccc1Cl)C(=O)c1ccccc1Cl
(2) CCc1ccc(C(=O)NN(C(=O)c2ccccc2Cl)C(C)(C)C)cc1
IN: Recorded log(activity) values differ for 1 and 2 ; which one is higher? Your choice should be expressed through its label.
OUT: 2
(2: -0.52, 1: -1.25)

(A) CC(C)(C)N(NC(=O)c1cccc(F)c1)C(=O)c1ccccc1Cl
(B) Cc1cccc(C(=O)NN(C(=O)c2cc(C)cc(C)c2)C(C)(C)C)c1
IN: Lower value of log(activity) belongs to which: A or B ? // caller expects the label of the chosen entry
OUT: A
